Assay: Solubility study of dapivirine
Type: physicochemical
Details: 10 mg/mL liposome dispersion in pH 4.2 acetate buffer, 37 °C, aqueous with cosolvent or surfactant or cyclodextrin, thermodynamic from solid; 10 mg/mL pH 4.2 liposome dispersion
parameterMeasured: solubility (µM)
Only the number, expressed in µM, is required.

Look up solubility: Cc1cc(C)c(Nc2ccnc(Nc3ccc(C#N)cc3)n2)c(C)c1
844
